Catalogue of self-cleavage values
B1: LINE1-full (parent)
chain: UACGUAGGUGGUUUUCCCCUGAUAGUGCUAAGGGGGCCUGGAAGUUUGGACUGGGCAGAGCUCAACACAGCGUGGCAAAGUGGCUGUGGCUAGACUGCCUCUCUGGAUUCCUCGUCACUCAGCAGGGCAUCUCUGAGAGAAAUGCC

Variants of: B1
assay-notes: self-cleavage, relative activity (ratio to wild type); higher = more cleavage; in vitro, sequencing; the parent is a self-cleaving ribozyme
Give the value as a plain number.

Here are 5 variants together with their reported answers.
UACGUAGGUGGUUUUCCCCUGAUAGUGCUAAGGGGGCCUGGAAGUUUGGACUGGGCAGAGCUCAACACAGCGUGGCAAAGUGGCUGUGGCUAGACGGCCUCUCUGGAUUCCUCGUCACUCAGCAGAGCAUCUCUGAGAGAAAUGCC [U96G G126A]
0
UACGUAGGUGGUUUUCCCCUGAUAGUGCUAAGGGGGCCUGGAAGUUUGGACUGGGCAGAGCUCAACACAGGGUGGCAAAGCGGCUGUGGCUAGACUGCCUCUCUGGAUUCCUCGUCACUCAGCAGGGCAUCUCUGAGAGAAAUGCC [C71G U81C]
0.27
UACGUAGGUGGUAUUCCCCUGAUAGUGCUAAGGGGGCCUGGAAGCUUGGACUGGGCAGAGCUCAACACAGCGUGGCAAAGUGGCUGUGGCUAGACUGCCUCUCUGGAUUCCUCGUCACUCAGCAGGGCAUCUCUGAGAGAAAUGCC [U13A U45C]
1.01
UACGUAGGUGGUUUUCCCCUGAUAGUGCUAAGGGGGCCUAGAAGUUUGGACUGGGCAGAGCUCAACACGGCGUGGCAAAGUGGCUGUGGCUAGACUGCCUCUCUGGAUUCCUCGUCACUCAGCAGGGCAUCUCUGAGAGAAAUGCC [G40A A69G]
0.49
UACGUAGGUGGUUUUCCCCUGAUAGUGCUAAGGGGGCCUGGAAGUUUGGACUGGGCAGAGCUCAACACAGCGUGGCAAAGUGGCUGUGGCUAGACUGCCUCUCUGGAUUCCACGUCUCUCAGCAGGGCAUCUCUGAGAGAAAUGCC [U112A A117U]
1.36

QUERY: # self-cleavage lookup, item UACGUAGGUGGUUUUCCCCUGAUAGUGCUAAGGGGGCCUGGAAGUUUGGACUGGGCAGAGCUCAACACAGCGUGGCAAAGUGGCUGUGGCUAGACUGCCUCUCCGGAUUCCUCGUCACUCAGCGGGGCAUCUCUGAGAGAAAUGCC [U104C A124G]
RESULT: 2.57

QUERY: Another variant: UACGUAGGUGGUUCUCCCCUGAUAGCGCUAAGGGGGCCUGGAAGUUUGGACUGGGCAGAGCUCAACACAGCGUGGCAAAGUGGCUGUGGCUAGACUGCCUCUCUGGAUUCCUCGUCACUCAGCAGGGCAUCUCUGAGAGAAAUGCC [U14C U26C]
RESULT: 1.12

QUERY: Another variant: UACGUAGGUGGUUUUCCCCUGAUAGUGCUAAGGGGGCCUGGAAGUUUGGACUGGGCAAGGCUCAACACAGCGUGGCAAAGUGGCUGUGGCUAGACUGCCUCUCUGGAUUCCUCGUCACUCAGCAGGGCAUCUCUGAGAGAAAUGCC [G58A A59G]
RESULT: 0

QUERY: Another variant: UACGUGGGUGGUUUUCCCCUGAUAGUGCUAAGGGGGCCUGGAAGUUUGGACUGGGCAGAGCUCAACACAGCGUGGCAAAGUGGCUGUGGCUAGACUGCCUCUCUGUAUUCCUCGUCACUCAGCAGGGCAUCUCUGAGAGAAAUGCC [A6G G106U]
RESULT: 1.06

QUERY: Another variant: UACGUAGGUGGUUUCCCCCUGAUAGUGCUAAGGGGGCCUGGAAGUUUGGACUGGGCAGAGCUCAACACAGCGUGGCAAAGUGGCUGUGGCUAGACUGCCUCUCUGGAUUCCUCGUCACUCAGCAGGGCAUCACUGAGAGAAAUGCC [U15C U132A]
RESULT: 1.89

QUERY: Another variant: UACGUAGGUGGUUCUCCCCUGAUAGUGCUAAGGGGGCCUGGAAGUUUGGACUGGGCAGAGCUCAACACAGCGUGGCAAAGUGGCUGUGGAUAGACUGCCUCUCUGGAUUCCUCGUCACUCAGCAGGGCAUCUCUGAGAGAAAUGCC [U14C C90A]
RESULT: 0

QUERY: Another variant: UACGUAGGUGGUUUUCCCCUGAUAGUGCUAAGGGGGCCUGGAAGUUUGGACUGGGCAGGGCUCAACACAGCGUGGCAAAGUGGCUGUGGCUAGGCUGCCUCUCUGGAUUCCUCGUCACUCAGCAGGGCAUCUCUGAGAGAAAUGCC [A59G A94G]
RESULT: 0.23

QUERY: Another variant: UACGUAGGUGGUUUUCCCCUGAUAGUGCUAAGGGGGCCUGGAAGUUUGGACUGGGCAGAGCUCAACACAGCGAGGCAAAGUGGCUGUGGCUAGACUGCCUCUCUGGAUUCCUCGUCACUCAGCUGGGCAUCUCUGAGAGAAAUGCC [U73A A124U]
RESULT: 1.4

QUERY: Another variant: UACGUAGGUGGUUUUCCCCUGAUAGUGCUAAGGGGGCCUGGAAGUUUGGACUGGGCAAAGCUCAACACAGCGUGGCAAAGUGGCUGCGGCUAGACUGCCUCUCUGGAUUCCUCGUCACUCAGCAGGGCAUCUCUGAGAGAAAUGCC [G58A U87C]
RESULT: 0

QUERY: Another variant: UACGUAGGUGGUUUUCCCCUGAUAGUGCUAAGGGGGCCUGGAAGUUUGGACUGGGCAGAGCUCAACACAGCGUGGCAAAGUGGCUGUGGCUAGACUGACUCUCUGGACUCCUCGUCACUCAGCAGGGCAUCUCUGAGAGAAAUGCC [C98A U108C]
RESULT: 0.4

QUERY: Another variant: UACGUAGGUGGUUUUCCCCUGAUAGUGCUAAGGGGGCCUGGAAGUUUGGACUGGGCAGAGCUCAACACAGCGUGGCAAAGUGGCUGUGGCUAGACCGCCUCCCUGGAUUCCUCGUCACUCAGCAGGGCAUCUCUGAGAGAAAUGCC [U96C U102C]
RESULT: 0.12

QUERY: Another variant: UACGUAGGUGGUUUUCCCCCGAUAGUGCUAAGGGGGCCCGGAAGUUUGGACUGGGCAGAGCUCAACACAGCGUGGCAAAGUGGCUGUGGCUAGACUGCCUCUCUGGAUUCCUCGUCACUCAGCAGGGCAUCUCUGAGAGAAAUGCC [U20C U39C]
RESULT: 1.28

QUERY: Another variant: UACGUAGGUGGUUUUCCCCAGAUAGUGCUAAGGAGGCCUGGAAGUUUGGACUGGGCAGAGCUCAACACAGCGUGGCAAAGUGGCUGUGGCUAGACUGCCUCUCUGGAUUCCUCGUCACUCAGCAGGGCAUCUCUGAGAGAAAUGCC [U20A G34A]
RESULT: 0.88

QUERY: Another variant: UACGUAGGAGGUUUCCCCCUGAUAGUGCUAAGGGGGCCUGGAAGUUUGGACUGGGCAGAGCUCAACACAGCGUGGCAAAGUGGCUGUGGCUAGACUGCCUCUCUGGAUUCCUCGUCACUCAGCAGGGCAUCUCUGAGAGAAAUGCC [U9A U15C]
RESULT: 1.08

QUERY: Another variant: UACGUAGGUGGUUUUCCCCUGAUAGUGCUAAGGGGGCCUGGAAGUUUGGACUGGGCCGAGCUCAACACAGCGUGGCAAAGCGGCUGUGGCUAGACUGCCUCUCUGGAUUCCUCGUCACUCAGCAGGGCAUCUCUGAGAGAAAUGCC [A57C U81C]
RESULT: 0.04

QUERY: Another variant: UACGUGGGUGGUUUUCCCCUGAUAAUGCUAAGGGGGCCUGGAAGUUUGGACUGGGCAGAGCUCAACACAGCGUGGCAAAGUGGCUGUGGCUAGACUGCCUCUCUGGAUUCCUCGUCACUCAGCAGGGCAUCUCUGAGAGAAAUGCC [A6G G25A]
RESULT: 0.1

QUERY: Another variant: UACGUAGGUGGUUUUCCCCUGAUAGUGCUAAGGGGGCCUGGAAGUUUGGACUGGGCAGAGCUCAACACAGCGUGGCAAAGUGGCUGUGGCUAGACUGCCUCUCUGGGUUCCUCGCCACUCAGCAGGGCAUCUCUGAGAGAAAUGCC [A107G U115C]
RESULT: 1.99

QUERY: Another variant: UACGUAGGUGGUUUUCCCCUGAUAGUGCUAAGGGGGCCUGGAAGAUUGGACUGGGCAGAACUCAACACAGCGUGGCAAAGUGGCUGUGGCUAGACUGCCUCUCUGGAUUCCUCGUCACUCAGCAGGGCAUCUCUGAGAGAAAUGCC [U45A G60A]
RESULT: 0.03

QUERY: Another variant: UACGUAGGUGGUUUUCCCCUGAUAGUGCUAAGGGGGCCUGGAAGUUUGGACUGGGCAGAGCUCAACACAGCGUGGCAAAGUGGCUGUGGCUAGACUGCCUCUCUGGAUUCCUCGUCACGCAGCAGGGCAUCUCUGAGAGGAAUGCC [U119G A140G]
RESULT: 2.22

QUERY: Another variant: UACGUAGGUGGUUUUCCCCUGAUAGUGCUAAGGGGGCCUGGAAGUUUGGACUGGGCAGAGCUCAACACAGCGUGGCAAAGUGGCUGUGACUAGACUGCCUCCCUGGAUUCCUCGUCACUCAGCAGGGCAUCUCUGAGAGAAAUGCC [G89A U102C]
RESULT: 0.05

QUERY: Another variant: UACGUAGGUGGUUUUCCCCUGAUGGUGCUAAGGGGGCCUGGAAGUUUGGACUGGGCAGAGCUAAACACAGCGUGGCAAAGUGGCUGUGGCUAGACUGCCUCUCUGGAUUCCUCGUCACUCAGCAGGGCAUCUCUGAGAGAAAUGCC [A24G C63A]
RESULT: 0

Ref: the RNAGym collection of RNA variant scans (doi:10.7554/elife.90254)
